These entries and their values trace back to paper PMC9005681.

Molecular target: cloned human or rodent CNS receptors, channels, and transporters (PDSP panel) (Homo sapiens, UniProt P28222)
Construct: expressed in transfected cells
Sequence (P28222 whole entry): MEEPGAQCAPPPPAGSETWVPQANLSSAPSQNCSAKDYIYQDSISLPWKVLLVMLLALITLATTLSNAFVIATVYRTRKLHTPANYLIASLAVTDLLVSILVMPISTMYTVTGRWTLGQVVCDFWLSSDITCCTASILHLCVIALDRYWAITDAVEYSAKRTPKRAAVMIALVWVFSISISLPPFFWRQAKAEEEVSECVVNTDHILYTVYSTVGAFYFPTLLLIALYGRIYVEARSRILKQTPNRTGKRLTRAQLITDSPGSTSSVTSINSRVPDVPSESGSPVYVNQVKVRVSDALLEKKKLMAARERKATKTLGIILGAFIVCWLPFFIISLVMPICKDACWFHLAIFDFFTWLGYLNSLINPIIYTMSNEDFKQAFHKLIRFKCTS
Assay: PDSP GPCR panel primary binding assays at 10 μM
Details: Receptor 5-HT1B; primary assay, 10 μM; mean of Inhibition 1-4
observable: Mean % (%)
Numbers only, in %.

1) c1cn2cc(-c3ccc4cn[nH]c4c3)nc(Nc3ccc(N4CCOCC4)cc3)c2n1 [UNC10302678A, Entospletinib (GS-9973)] ... 2.36
2) Cl.NC(=O)c1cnc(N[C@@H]2CCCC[C@@H]2N)nc1Nc1cccc(-n2nccn2)c1 [UNC10302682A, P505-15 (PRT06207 HCl)] ... 34.01

Record Mean % per entry; entries follow.
1. O=c1oc2ccccc2cc1-c1cn2cc(Cc3ccc(F)cc3)sc2n1 [UNC10302680A, iMDK]
2. CCCCNc1ncc2c(-c3ccc(CN4CCN(C)CC4)cc3)cn([C@H]3CC[C@H](O)CC3)c2n1 [UNC2025C, UNC2025]

[out]
0.74
16.37
